# Tested on: U-2932
# Assay: Combination study, ATPLite 72 h, dose matrix (Synergy Score, CI50)
# Experimental Setup: combination with Compound 1, 72 h

>  <Compound>
COc1ccc(-c2ccc3c(N4CCOC[C@@H]4C)nc(N4CCOC[C@@H]4C)nc3n2)cc1CO

>  <Synergy Score growth inhibition>
A2 (A2=1 to <3)

$$$$
>  <Compound>
CC(=O)Nc1cccc(-n2c(=O)n(C3CC3)c(=O)c3c(Nc4ccc(I)cc4F)n(C)c(=O)c(C)c32)c1

>  <Synergy Score growth inhibition>
A1 (A1=0.0001 to <1)

$$$$
>  <Compound>
CCCCCCCCCCCCCCCCCCOP(=O)([O-])OC1CC[N+](C)(C)CC1

>  <Synergy Score growth inhibition>
A1 (A1=0.0001 to <1)

$$$$
>  <Compound>
Nc1cccc2c1CN(C1CCC(=O)NC1=O)C2=O (stereo not shown) [lenalidomide]

>  <Synergy Score growth inhibition>
A1 (A1=0.0001 to <1)

$$$$
>  <Compound>
CC(C)C[C@H](NC(=O)[C@H](CCc1ccccc1)NC(=O)CN1CCOCC1)C(=O)N[C@@H](Cc1ccccc1)C(=O)N[C@@H](CC(C)C)C(=O)[C@@]1(C)CO1

>  <Synergy Score growth inhibition>
A2 (A2=1 to <3)

$$$$
>  <Compound>
NC1(c2ccc(-c3nc4ccn5c(=O)[nH]nc5c4cc3-c3ccccc3)cc2)CCC1

>  <Synergy Score growth inhibition>
A1 (A1=0.0001 to <1)

$$$$

* * *

# Test system: SU-DHL-10-epst
# Assay: Combination study, ATPLite 72 h, dose matrix (Synergy Score, CI50)
# Experimental Setup: combination with Compound 1, 72 h
Attribute Measured: CI50 growth inhibition

>  <Molecule>
CCCCCCCCCCCCCCCCCCOP(=O)([O-])OC1CC[N+](C)(C)CC1

>  <Target System>
SU-DHL-10-epst

>  <Observed Measurement>
T (T=0.5 to <0.7)

$$$$
>  <Molecule>
CC(=O)Nc1cccc(-n2c(=O)n(C3CC3)c(=O)c3c(Nc4ccc(I)cc4F)n(C)c(=O)c(C)c32)c1

>  <Target System>
SU-DHL-10-epst

>  <Observed Measurement>
S (S=0.01 to <0.5)

$$$$
>  <Molecule>
O=C(NOC[C@H](O)CO)c1ccc(F)c(F)c1Nc1ccc(I)cc1F

>  <Target System>
SU-DHL-10-epst

>  <Observed Measurement>
S (S=0.01 to <0.5)

$$$$
>  <Molecule>
Nc1cccc2c1CN(C1CCC(=O)NC1=O)C2=O (stereo not shown) [lenalidomide]

>  <Target System>
SU-DHL-10-epst

>  <Observed Measurement>
T (T=0.5 to <0.7)

$$$$

* * *

# Tested on: Mino
# Assay: Combination study, ATPLite 72 h, dose matrix (Synergy Score, CI50)
# Experimental Setup: combination with Compound 1
Where a name gives a salt, the structure may show the parent alone.
Attribute Measured: Synergy Score growth inhibition

>  <Compound>
CCCCCCCCCCCCCCCCCCOP(=O)([O-])OC1CC[N+](C)(C)CC1

>  <Target System>
Mino

>  <Observed Measurement>
A2 (A2=1 to <3)

$$$$
>  <Compound>
Nc1cccc2c1CN(C1CCC(=O)NC1=O)C2=O (stereo not shown) [lenalidomide]

>  <Target System>
Mino

>  <Observed Measurement>
A2 (A2=1 to <3)

$$$$
>  <Compound>
COc1ccc(-c2ccc3c(N4CCOC[C@@H]4C)nc(N4CCOC[C@@H]4C)nc3n2)cc1CO

>  <Target System>
Mino

>  <Observed Measurement>
A2 (A2=1 to <3)

$$$$
>  <Compound>
O=C(NOC[C@H](O)CO)c1ccc(F)c(F)c1Nc1ccc(I)cc1F

>  <Target System>
Mino

>  <Observed Measurement>
A3 (A3=>3)

$$$$
>  <Compound>
NC1(c2ccc(-c3nc4ccn5c(=O)[nH]nc5c4cc3-c3ccccc3)cc2)CCC1

>  <Target System>
Mino

>  <Observed Measurement>
A1 (A1=0.0001 to <1)

$$$$
>  <Compound>
CN1CCc2c(c3ccccc3n2Cc2ccc(C(=O)NO)cc2)C1.Cl [Tubastatin A hydrochloride]

>  <Target System>
Mino

>  <Observed Measurement>
A2 (A2=1 to <3)

$$$$
>  <Compound>
CS(=O)(=O)N1CCN(Cc2cc3nc(-c4cccc5[nH]ncc45)nc(N4CCOCC4)c3s2)CC1

>  <Target System>
Mino

>  <Observed Measurement>
A2 (A2=1 to <3)

$$$$
>  <Compound>
C[C@@H]1C[C@H]2[C@@H]3CCC4=CC(=O)C=C[C@]4(C)[C@@]3(F)[C@@H](O)C[C@]2(C)[C@@]1(O)C(=O)CO

>  <Target System>
Mino

>  <Observed Measurement>
A3 (A3=>3)

$$$$
>  <Compound>
O=C(Nc1ccc2[nH]nc(-c3ccncc3)c2c1)[C@@H]1CCN(CC(=O)N2CCN(c3ccc(-c4ncccn4)cc3)CC2)C1

>  <Target System>
Mino

>  <Observed Measurement>
A1 (A1=0.0001 to <1)

$$$$
>  <Compound>
COc1cccc2c1C(=O)c1c(O)c3c(c(O)c1C2=O)C[C@@](O)(C(=O)CO)C[C@@H]3O[C@H]1C[C@H](N)[C@H](O)[C@H](C)O1 [Doxorubicin HCl]

>  <Target System>
Mino

>  <Observed Measurement>
A3 (A3=>3)

$$$$

* * *

# Tested on: Mino
# Assay: Combination study, ATPLite 72 h, dose matrix (Synergy Score, CI50)
# Experimental Setup: combination with Compound 1
Structures can show the parent of a compound that is named as a salt.
Attribute Measured: Synergy Score inhibition

>  <Compound>
COc1ccc(-c2ccc3c(N4CCOC[C@@H]4C)nc(N4CCOC[C@@H]4C)nc3n2)cc1CO [AZD 8055]

>  <Observed Measurement>
A1 (A1=0.0001 to <1)

$$$$
>  <Compound>
O=C(Nc1ccc2[nH]nc(-c3ccncc3)c2c1)[C@@H]1CCN(CC(=O)N2CCN(c3ccc(-c4ncccn4)cc3)CC2)C1 [SCH772984]

>  <Observed Measurement>
A1 (A1=0.0001 to <1)

$$$$
>  <Compound>
CS(=O)(=O)N1CCN(Cc2cc3nc(-c4cccc5[nH]ncc45)nc(N4CCOCC4)c3s2)CC1 [GDC-0941]

>  <Observed Measurement>
A2 (A2=1 to <3)

$$$$
>  <Compound>
Nc1cccc2c1CN(C1CCC(=O)NC1=O)C2=O (stereo not shown) [lenalidomide]

>  <Observed Measurement>
A1 (A1=0.0001 to <1)

$$$$
>  <Compound>
NC1(c2ccc(-c3nc4ccn5c(=O)[nH]nc5c4cc3-c3ccccc3)cc2)CCC1 [MK-2206]

>  <Observed Measurement>
A1 (A1=0.0001 to <1)

$$$$
>  <Compound>
COc1cccc2c1C(=O)c1c(O)c3c(c(O)c1C2=O)C[C@@](O)(C(=O)CO)C[C@@H]3O[C@H]1C[C@H](N)[C@H](O)[C@H](C)O1 [Doxorubicin HCl]

>  <Observed Measurement>
A2 (A2=1 to <3)

$$$$

* * *

# Test system: Mino
# Assay: Combination study, ATPLite 72 h, dose matrix (Synergy Score, CI50)
# Experimental Setup: combination with Compound 1

>  <Compound>
CO[C@H]1C[C@@H]2CC[C@@H](C)[C@@](O)(O2)C(=O)C(=O)N2CCCC[C@H]2C(=O)O[C@H]([C@H](C)C[C@@H]2CC[C@@H](OCCO)[C@H](OC)C2)CC(=O)[C@H](C)/C=C(\C)[C@@H](O)[C@@H](OC)C(=O)[C@H](C)C[C@H](C)/C=C/C=C/C=C/1C

>  <Target System>
Mino

>  <Synergy Score inhibition>
A2 (A2=1 to <3)

$$$$
>  <Compound>
C[C@@H]1C[C@H]2[C@@H]3CCC4=CC(=O)C=C[C@]4(C)[C@@]3(F)[C@@H](O)C[C@]2(C)[C@@]1(O)C(=O)CO

>  <Target System>
Mino

>  <Synergy Score inhibition>
A2 (A2=1 to <3)

$$$$
>  <Compound>
CC(C)C[C@H](NC(=O)[C@H](CCc1ccccc1)NC(=O)CN1CCOCC1)C(=O)N[C@@H](Cc1ccccc1)C(=O)N[C@@H](CC(C)C)C(=O)[C@@]1(C)CO1

>  <Target System>
Mino

>  <Synergy Score inhibition>
A1 (A1=0.0001 to <1)

$$$$
>  <Compound>
CN1CCc2c(c3ccccc3n2Cc2ccc(C(=O)NO)cc2)C1.Cl [Tubastatin A hydrochloride]

>  <Target System>
Mino

>  <Synergy Score inhibition>
A1 (A1=0.0001 to <1)

$$$$
>  <Compound>
CCCCCCCCCCCCCCCCCCOP(=O)([O-])OC1CC[N+](C)(C)CC1

>  <Target System>
Mino

>  <Synergy Score inhibition>
A1 (A1=0.0001 to <1)

$$$$

* * *

# Test system: HBL-1
# Assay: Combination study, ATPLite 72 h, dose matrix (Synergy Score, CI50)
# Experimental Setup: combination with Compound 1, 72 h
Counter-ions that a name gives are not always drawn.

>  <Compound>
COc1ccc(-c2ccc3c(N4CCOC[C@@H]4C)nc(N4CCOC[C@@H]4C)nc3n2)cc1CO

>  <CI50 growth inhibition>
S (S=0.01 to <0.5)

$$$$
>  <Compound>
COc1cccc2c1C(=O)c1c(O)c3c(c(O)c1C2=O)C[C@@](O)(C(=O)CO)C[C@@H]3O[C@H]1C[C@H](N)[C@H](O)[C@H](C)O1 [Doxorubicin HCl]

>  <CI50 growth inhibition>
S (S=0.01 to <0.5)

$$$$
>  <Compound>
CO[C@H]1C[C@@H]2CC[C@@H](C)[C@@](O)(O2)C(=O)C(=O)N2CCCC[C@H]2C(=O)O[C@H]([C@H](C)C[C@@H]2CC[C@@H](OCCO)[C@H](OC)C2)CC(=O)[C@H](C)/C=C(\C)[C@@H](O)[C@@H](OC)C(=O)[C@H](C)C[C@H](C)/C=C/C=C/C=C/1C

>  <CI50 growth inhibition>
T (T=0.5 to <0.7)

$$$$
>  <Compound>
C[C@@H]1C[C@H]2[C@@H]3CCC4=CC(=O)C=C[C@]4(C)[C@@]3(F)[C@@H](O)C[C@]2(C)[C@@]1(O)C(=O)CO

>  <CI50 growth inhibition>
S (S=0.01 to <0.5)

$$$$
>  <Compound>
CC(=O)Nc1cccc(-n2c(=O)n(C3CC3)c(=O)c3c(Nc4ccc(I)cc4F)n(C)c(=O)c(C)c32)c1

>  <CI50 growth inhibition>
U (U=0.7 to <1)

$$$$
>  <Compound>
CC(C)C[C@H](NC(=O)[C@H](CCc1ccccc1)NC(=O)CN1CCOCC1)C(=O)N[C@@H](Cc1ccccc1)C(=O)N[C@@H](CC(C)C)C(=O)[C@@]1(C)CO1

>  <CI50 growth inhibition>
T (T=0.5 to <0.7)

$$$$
>  <Compound>
O=C(Nc1ccc2[nH]nc(-c3ccncc3)c2c1)[C@@H]1CCN(CC(=O)N2CCN(c3ccc(-c4ncccn4)cc3)CC2)C1

>  <CI50 growth inhibition>
T (T=0.5 to <0.7)

$$$$
>  <Compound>
NC1(c2ccc(-c3nc4ccn5c(=O)[nH]nc5c4cc3-c3ccccc3)cc2)CCC1

>  <CI50 growth inhibition>
T (T=0.5 to <0.7)

$$$$
>  <Compound>
CCCCCCCCCCCCCCCCCCOP(=O)([O-])OC1CC[N+](C)(C)CC1

>  <CI50 growth inhibition>
U (U=0.7 to <1)

$$$$
>  <Compound>
CS(=O)(=O)N1CCN(Cc2cc3nc(-c4cccc5[nH]ncc45)nc(N4CCOCC4)c3s2)CC1

>  <CI50 growth inhibition>
U (U=0.7 to <1)

$$$$
